assay: Baseline screening BCF (0.0125 DMLW, equilibrium partitioning, no biotransformation)
observationType: Log difference (baseline BCF vs BCF) (L kg-1 ww)

Example entries and their recorded answers appear below.
>>> testresult("CCCCC(CC)COC(=O)CC(C(=O)OCC(CC)CCCC)S(=O)(=O)O (stereo not shown) [DOSS, bis(2-ethylhexyl)sulfosuccinate]")
2.53
>>> testresult("CCCCCCCCCCCCCOS(=O)(=O)O [C13SO4, tridecylsulfate]")
1.78
>>> testresult("CCCCCCCCCCS(=O)(=O)O [C10SO3, decylsulfonate]")
2.48
>>> testresult("CCCCCCCCCCCCCS(=O)(=O)O [C13SO3, tridecylsulfonate]")
1.90
>>> testresult("CCCCCCCCCCCCOCCOCCOCCOCCOS(=O)(=O)O [C12-EO4-SO4, dodecyltetraethoxysulfate]")
2.38

a: CCCCCCCCCCCS(=O)(=O)O [C11SO3, undecylsulfonate]
b: CCCCCCCCCCCCCCS(=O)(=O)O [C14SO3, tetradecylsulfonate]
[in] Log difference (baseline BCF vs BCF) comparison. Which is larger, a or b ? Refer to your chosen item by its label in the answer.
[out] a

---

system: rainbow trout; assay: In vivo bioconcentration experiment with a mixture of anionic surfactants, flow-through aquaria, 10 °C, pH 7.8; details: determined using nominal concentrations in water
observationType: BCF (L kg-1 ww)

The examples below pair each entry with its known result.
>>> testresult("CCCCCCCCCCCCCS(=O)(=O)O [C13SO3, tridecylsulfonate]")
3.9
>>> testresult("CCCCCCCCCCCOS(=O)(=O)O [C11SO4, undecylsulfate]")
0.57
>>> testresult("CCCCCCCCCCS(=O)(=O)O [C10SO3, decylsulfonate]")
0.046
>>> testresult("CCCCCCCCCCCS(=O)(=O)O [C11SO3, undecylsulfonate]")
0.137

I: CCCCCCCCCCc1ccc(S(=O)(=O)O)cc1 [C10-1-LAS, 1-n-(p-sulfophenyl)decane]
II: CCCCCCCCCCCCCOS(=O)(=O)O [C13SO4, tridecylsulfate]
[in] # compare BCF for I vs II ; return the one with the smaller value Give the chosen item's label as your response.
[out] I

P: CCCCCCCCCCCCCCS(=O)(=O)O [C14SO3, tetradecylsulfonate]
Q: CCCCCCCCCCCCOCCOCCOCCOCCOS(=O)(=O)O [C12-EO4-SO4, dodecyltetraethoxysulfate]
[in] I need your help: which of the pair P , Q has higher BCF? Choose, then provide that item's label.
[out] P

---

Experiment: In vivo bioconcentration experiment with a mixture of anionic surfactants, flow-through aquaria, 10 °C, pH 7.8
Parameters: species or system rainbow trout
Settings: rainbow trout, whole fish homogenate, other: waterborne exposure in flow-through aquaria, 26 μg L^–1, pH 7.8, exposure phase, 96 h; individual fish
Description: The bioconcentration of a mixture of 10 anionic surfactants was measured in rainbow trout in water at pH 7.8. […] The experiment was conducted in flow-through aquaria with juvenile rainbow trout at 10 °C. Ethical approval for the experiments was obtained from Stockholms […] […] The water/methanol mixture was analyzed using liquid chromatography-mass spectrometry (LC-MS)/MS as described below for fish. […] All analytes were quantified against the BEHP internal standard, as it gave better reproducibility. […]
observationType: concentration at 96 h (ng/g)
Write down the numeric answer in ng/g and omit the unit.

[in] Consider the compound CCCCC(CC)COC(=O)CC(C(=O)OCC(CC)CCCC)S(=O)(=O)O (stereo not shown) [DOSS, bis(2-ethylhexyl)sulfosuccinate] and give its measured concentration at 96 h.
[out] 84
